Activity values, listed per item
Tested on: Calf thymus DNA
experiment_notes: Binding affinity to calf thymus DNA assessed as change in absorption maximum at 10 to 80 uM by UV-Visible absorption spectroscopy (reference value: 425 to 500 nanometer)
Assay type: nucleic-acid assay
measurement_setup: Bos taurus

structure_notation | target_of_assay | Activity
O=C1NC(=S)S/C1=C\c1c[nH]c2ccc(Br)cc12 | Calf thymus DNA | 462 to 465 nm
O=C1NC(=S)S/C1=C\c1c[nH]c2ccccc12 | Calf thymus DNA | 436 to 462 nm
NN1C(=O)/C(=C/c2c[nH]c3ccc(Br)cc23)SC1=S | Calf thymus DNA | 411 to 413 nm
NN1C(=O)/C(=C/c2c[nH]c3ccccc23)SC1=S | Calf thymus DNA | 504 to 507 nm
